- System: Serine/threonine-protein kinase B-raf (Homo sapiens), P15056 [V600E]
- Sequence (P15056 whole entry V600E): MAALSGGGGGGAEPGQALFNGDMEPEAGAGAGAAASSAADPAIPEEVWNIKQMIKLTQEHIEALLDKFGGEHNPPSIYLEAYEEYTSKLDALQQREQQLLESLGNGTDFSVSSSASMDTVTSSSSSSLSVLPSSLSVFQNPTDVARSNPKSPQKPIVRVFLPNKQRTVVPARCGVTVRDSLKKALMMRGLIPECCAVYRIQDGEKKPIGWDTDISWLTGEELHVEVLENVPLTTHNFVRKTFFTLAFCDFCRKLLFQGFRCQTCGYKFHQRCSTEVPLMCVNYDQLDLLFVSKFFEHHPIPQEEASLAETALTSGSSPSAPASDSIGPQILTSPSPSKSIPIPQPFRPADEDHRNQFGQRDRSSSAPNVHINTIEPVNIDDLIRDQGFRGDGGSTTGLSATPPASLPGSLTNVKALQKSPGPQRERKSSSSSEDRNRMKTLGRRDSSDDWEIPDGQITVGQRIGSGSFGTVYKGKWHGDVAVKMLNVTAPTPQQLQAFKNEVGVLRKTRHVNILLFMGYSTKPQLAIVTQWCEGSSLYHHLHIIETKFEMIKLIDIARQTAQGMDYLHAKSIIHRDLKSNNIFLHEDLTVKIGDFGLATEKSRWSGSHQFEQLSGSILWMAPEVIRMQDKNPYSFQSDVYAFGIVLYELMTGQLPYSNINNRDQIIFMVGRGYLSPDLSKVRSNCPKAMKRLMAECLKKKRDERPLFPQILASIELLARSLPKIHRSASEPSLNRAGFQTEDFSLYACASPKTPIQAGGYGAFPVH
- TEST NAME: Inhibition of BRAF V600E mutant at 1 uM by ELISA
READOUT KIND: inhibition (%)
Report the value in % with no unit label.

Problem: What value of measured inhibition is listed for Cc1cccc(N2C(=O)/C(=C\c3ccc(CN(CCC#N)S(C)(=O)=O)o3)C(=O)NC2=S)c1 ?
Result: 55

Problem: What value of measured inhibition is listed for Cc1ccc(N2C(=O)/C(=C\c3ccc(-c4ccc(C(=O)O)c(Cl)c4)o3)C(=O)NC2=S)cc1 ?
Result: 28

Problem: What value of measured inhibition is listed for Cc1ccc([N+](=O)[O-])cc1-c1ccc(C=C2C(=O)NC(=S)NC2=O)o1 ?
Result: 51

Problem: What value of measured inhibition is listed for Cc1ccc(N2C(=O)/C(=C\c3ccc(-c4ccc(F)cc4)o3)C(=O)NC2=S)cc1 ?
Result: 13
